# Assay system: recombinant human mPGES-1 (Homo sapiens (Human), UniProt O14684)
# Sequence (O14684 whole entry): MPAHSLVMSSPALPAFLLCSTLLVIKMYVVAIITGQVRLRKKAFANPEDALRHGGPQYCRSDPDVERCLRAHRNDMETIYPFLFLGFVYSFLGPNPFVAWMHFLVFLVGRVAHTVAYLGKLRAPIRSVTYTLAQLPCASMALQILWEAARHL
# Assay info: mPGES-1 enzyme assay (HTRF detection of PGE2)
# Format: biochemical
# Assay conditions: recombinant human mPGES-1 microsomes, PGH2 2 μM, 60 seconds; read-out: mPGES-1 inhibitory effect IC50 in the enzyme assay
Outcome measure: IC50 (nM)

Cn1c(Nc2c(Cl)ccc(CNC(=O)C(C)(C)C)c2Cl)nc2cc(C(=O)NCC(F)(F)C(F)(F)F)c(N3CCC(C(F)(F)F)CC3)cc21 [Example 53] : 2

A: CN1CCN(c2cc3c(cc2C(=O)N[C@H]2CC[C@H](C(F)(F)F)CC2)nc(Nc2c(Cl)ccc(CNC(=O)C(C)(C)C)c2Cl)n3C)CC1=O [Example 25]
B: Cn1c(Nc2c(Cl)ccc(CNC(=O)C(C)(C)C)c2Cl)nc2cc(C(=O)NCC(F)(F)F)c(N3CCC(C(F)(F)F)CC3)cc21 [Example 28]
**Query** Identify the entry with the larger IC50. Options: A and B Mark your answer with the label of the selected entry.
**Result** A

I: Cn1c(Nc2c(Cl)ccc(CNC(=O)C(C)(C)C)c2Cl)nc2cc(C(=O)Nc3nc(C(F)(F)F)cs3)c(N3CCC(C(F)(F)F)CC3)cc21 [Example 161]
II: Cn1c(Nc2c(Cl)ccc(CNC(=O)C(C)(C)C)c2Cl)nc2cc(C(=O)N[C@H]3CC[C@H](C(F)(F)F)CC3)c(N3CCC(C)(O)C3)cc21 (some centres unmarked) [Example 83]
**Query** Identify the entry with the larger IC50. Options: I and II Mark your answer with the label of the selected entry.
**Result** I
